biological target: Geranylgeranyl transferase type I (Homo sapiens, UniProt P49354+P53609); test: In vitro inhibitory activity against Geranylgeranyl transferase type I; format: protein-complex assay
reported.endpoint: pIC50
Answers are plain numbers, as −log10 of the molar value.

Guide cases for pIC50, answers given:
| compound | numeric.readout |
| --- | --- |
| Cn1cncc1C(OCc1c(-c2cccc(Cl)c2)cc(C#N)c(=O)n1C)c1ccc(C#N)c(Br)c1 (stereo not given) | 6.21 |
| Cn1cncc1C(OCc1c(-c2cc(Cl)cc(Cl)c2)cc(C#N)c(=O)n1C)c1ccc(C#N)cc1 (stereo not given) | 5.77 |
| Cn1cncc1C(OCc1c(-c2cc(F)cc(Cl)c2)cc(C#N)c(=O)n1C)c1ccc(C#N)cc1 (stereo not given) | 5.74 |

Turning now to a further compound:
May I ask what pIC50 has been recorded for Cn1cncc1C(OCc1c(-c2cccc(Cl)c2F)cc(C#N)c(=O)n1C)c1ccc(C#N)cc1 (stereo not given) ? 5.82
